From: ChEMBL document CHEMBL5352480

Molecular target: PA-I galactophilic lectin (Pseudomonas aeruginosa (strain ATCC 15692 / PAO1 / 1C / PRS 101 / LMG12228))
Sequence (whole entry): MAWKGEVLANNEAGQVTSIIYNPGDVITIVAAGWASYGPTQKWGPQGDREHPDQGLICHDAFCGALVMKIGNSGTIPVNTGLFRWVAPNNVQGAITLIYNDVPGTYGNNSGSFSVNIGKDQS
Test: Binding affinity to Pseudomonas aeruginosa LecA expressed in Escherichia coli BL21 (DE3) cells assessed as change in enthalpy by isothermal titration calorimetry
measurementLabel: deltaH (kcal/mol)
Numbers only here, please. The scale is kcal/mol.

These solved cases illustrate the format of a correct answer.
{"compound": "C=C(c1ccc(OC)cc1)c1ccc(S[C@@H]2O[C@H](CO)[C@H](O)[C@H](O)[C@H]2O)cc1", "deltaH (kcal/mol)": -11.1}
{"compound": "C=C(c1ccc(S[C@@H]2O[C@H](CO)[C@H](O)[C@H](O)[C@H]2O)cc1)c1cccc(S[C@H]2O[C@@H](CO)[C@@H](O)[C@@H](O)[C@@H]2O)c1 (single isomer, unassigned)", "deltaH (kcal/mol)": -21.6}
{"compound": "C=C(c1ccc(S[C@@H]2O[C@H](CO)[C@H](O)[C@H](O)[C@H]2O)cc1)c1ccc2ccccc2c1", "deltaH (kcal/mol)": -8.41}

Quick check: deltaH of C=C(c1cc(OC)c(OC)c(OC)c1)c1ccc(OC)c(S[C@@H]2O[C@H](CO)[C@H](O)[C@H](O)[C@H]2OC(C)=O)c1 ?
-8.6

Quick check: deltaH of COc1ccc(C(=O)c2cc(OC)c(OC)c(OC)c2)cc1S[C@@H]1O[C@H](CO)[C@H](O)[C@H](O)[C@H]1O ?
-13

Quick check: deltaH of C=C(c1ccc(OC)cc1)c1cccc(S[C@@H]2O[C@H](CO)[C@H](O)[C@H](O)[C@H]2O)c1 ?
-11.1

Quick check: deltaH of CC(C)c1ccc(S[C@@H]2O[C@H](CO)[C@H](O)[C@H](O)[C@H]2O)cc1 ?
-11.9

Quick check: deltaH of COc1ccc(S[C@@H]2O[C@H](CO)[C@H](O)[C@H](O)[C@H]2O)cc1 ?
-10.1

Quick check: deltaH of O=Cc1ccc(S[C@@H]2O[C@H](CO)[C@H](O)[C@H](O)[C@H]2O)cc1 ?
-9.85
